Below is a list of entries, each paired with its recorded inhibition at 10 µM value.
- ASSAY_SYSTEM: AR (Homo sapiens, UniProt P10275)
- Sequence (P10275 669-920 limits assumed): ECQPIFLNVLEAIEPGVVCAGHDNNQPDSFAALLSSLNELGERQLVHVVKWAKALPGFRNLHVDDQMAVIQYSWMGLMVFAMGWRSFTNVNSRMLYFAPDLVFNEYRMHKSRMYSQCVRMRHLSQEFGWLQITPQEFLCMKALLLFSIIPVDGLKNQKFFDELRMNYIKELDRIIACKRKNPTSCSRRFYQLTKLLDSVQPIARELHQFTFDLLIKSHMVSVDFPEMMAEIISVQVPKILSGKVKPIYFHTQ
- EXPERIMENT_SUMMARY: GeneBlazer assay, inhibition against AR activity
- Format: cell-based
- DETAILS: 10 uM; Table II
MEASURED_ATTRIBUTE: inhibition at 10 µM (%)

>>> numeric_readout("CCCCn1nnnc1C(c1cc2ccccc2[nH]1)N1CCN(c2c(Cl)cncc2Cl)CC1 (centres unmarked)")
102
>>> numeric_readout("CCCCn1nnnc1C(c1cccc(O)c1)N1CCN(C(=O)OCc2ccccc2)CC1 (centres unmarked)")
24.9
>>> numeric_readout("CC(C)(C)n1nnnc1C(c1ccncc1)N1CCN(c2c(Cl)cncc2Cl)CC1 (centres unmarked)")
91.4
>>> numeric_readout("CCCCn1nnnc1C(c1ccc2ccccc2c1)N1CCN(c2c(Cl)cncc2Cl)CC1 (centres unmarked)")
87.6
>>> numeric_readout("CC(C)(C)n1nnnc1C(c1cccc(O)c1)N1CCN(c2c(Cl)cncc2Cl)CC1 (centres unmarked)")
102
>>> numeric_readout("Cc1ccc(C(c2nnnn2C(C)(C)C)N2CCN(c3c(Cl)cncc3Cl)CC2)o1 (centres unmarked)")
100
>>> numeric_readout("CCCCn1nnnc1C(c1cccc(O)c1)N1CCN(c2ccccc2F)CC1 (centres unmarked)")
79.8
>>> numeric_readout("CC(C)(C)n1nnnc1C(c1ccc(F)cc1)N1CCN(c2c(Cl)cncc2Cl)CC1 (centres unmarked)")
111
